- Assayed system: mGlu6 (Homo sapiens)
- Sequence (O15303 25-877): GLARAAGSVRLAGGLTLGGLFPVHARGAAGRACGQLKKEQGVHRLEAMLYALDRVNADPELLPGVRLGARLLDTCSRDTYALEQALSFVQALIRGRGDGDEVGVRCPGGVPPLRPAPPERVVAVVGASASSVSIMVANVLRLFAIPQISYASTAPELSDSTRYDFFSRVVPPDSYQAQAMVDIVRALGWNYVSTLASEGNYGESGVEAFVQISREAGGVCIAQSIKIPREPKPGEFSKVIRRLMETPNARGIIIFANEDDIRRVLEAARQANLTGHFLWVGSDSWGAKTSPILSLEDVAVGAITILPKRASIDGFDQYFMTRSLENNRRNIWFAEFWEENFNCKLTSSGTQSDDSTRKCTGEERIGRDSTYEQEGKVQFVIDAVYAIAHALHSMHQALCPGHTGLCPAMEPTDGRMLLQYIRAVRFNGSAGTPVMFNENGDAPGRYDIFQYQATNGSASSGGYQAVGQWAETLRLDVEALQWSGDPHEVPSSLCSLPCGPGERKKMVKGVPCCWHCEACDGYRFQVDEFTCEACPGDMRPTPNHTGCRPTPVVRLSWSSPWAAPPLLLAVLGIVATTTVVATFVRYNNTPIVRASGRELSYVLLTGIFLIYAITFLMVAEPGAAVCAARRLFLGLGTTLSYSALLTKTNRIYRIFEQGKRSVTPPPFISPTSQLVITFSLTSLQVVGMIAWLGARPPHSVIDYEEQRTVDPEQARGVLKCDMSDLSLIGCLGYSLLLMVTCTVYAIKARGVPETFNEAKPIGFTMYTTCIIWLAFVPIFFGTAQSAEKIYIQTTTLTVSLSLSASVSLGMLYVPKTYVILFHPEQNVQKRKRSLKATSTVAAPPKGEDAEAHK
- Assay method text: Activities on metabotropic glutamate receptor 6 (EC50; readout marked IP or by a symbol)
- Format: cell-based
- Recorded conditions: values marked with an image symbol (second readout, not IP); mean ± spread (n); read-out: mG1u6 EC50 μM (n) (converted)
Structures can show the parent of a compound that is named as a salt.
Measured quantity: EC50 (µM)

Below, 2 compounds whose answers are already recorded.
N[C@@H](CCP(=O)(O)C(O)c1ccc(O)c([N+](=O)[O-])c1)C(=O)O (single isomer, unassigned) [LSP3-2074-I, hydrochloride]; 3.9
COc1cc(C(O)P(=O)(O)CC[C@H](N)C(=O)O)cc([N+](=O)[O-])c1O (mixture of isomers) [LSP1-2111]; 3.18

a: N[C@@H](CCP(=O)(O)C(O)c1ccc(O)c([N+](=O)[O-])c1)C(=O)O (stereo partly drawn) [LSP1-2109]
b: Cl.N[C@@H](CCP(=O)(O)C(O)c1ccc(O)c([N+](=O)[O-])c1)C(=O)O (single isomer, unassigned) [LSP3-2074-II, hydrochloride]
c: COc1cc(C(O)P(=O)(O)CC[C@H](N)C(=O)O)cc([N+](=O)[O-])c1O (single isomer, unassigned) [LSP3-1101-II, hydrochloride]
d: COc1cc(C(O)P(=O)(O)CC[C@H](N)C(=O)O)cc([N+](=O)[O-])c1O (single isomer, unassigned) [LSP3-1101-I, hydrochloride]
In: Task for the reader: rank each entry by its EC50, from the minimum upward. Could you list the labels in the order requested?
Out: d, c, a, b
(d: 1.11 µM, c: 2.36 µM, a: 6.3 µM, b: 68.4 µM)

###

- Assayed system: mGlu4 (Homo sapiens, UniProt Q14833)
- Sequence (Q14833 33-912): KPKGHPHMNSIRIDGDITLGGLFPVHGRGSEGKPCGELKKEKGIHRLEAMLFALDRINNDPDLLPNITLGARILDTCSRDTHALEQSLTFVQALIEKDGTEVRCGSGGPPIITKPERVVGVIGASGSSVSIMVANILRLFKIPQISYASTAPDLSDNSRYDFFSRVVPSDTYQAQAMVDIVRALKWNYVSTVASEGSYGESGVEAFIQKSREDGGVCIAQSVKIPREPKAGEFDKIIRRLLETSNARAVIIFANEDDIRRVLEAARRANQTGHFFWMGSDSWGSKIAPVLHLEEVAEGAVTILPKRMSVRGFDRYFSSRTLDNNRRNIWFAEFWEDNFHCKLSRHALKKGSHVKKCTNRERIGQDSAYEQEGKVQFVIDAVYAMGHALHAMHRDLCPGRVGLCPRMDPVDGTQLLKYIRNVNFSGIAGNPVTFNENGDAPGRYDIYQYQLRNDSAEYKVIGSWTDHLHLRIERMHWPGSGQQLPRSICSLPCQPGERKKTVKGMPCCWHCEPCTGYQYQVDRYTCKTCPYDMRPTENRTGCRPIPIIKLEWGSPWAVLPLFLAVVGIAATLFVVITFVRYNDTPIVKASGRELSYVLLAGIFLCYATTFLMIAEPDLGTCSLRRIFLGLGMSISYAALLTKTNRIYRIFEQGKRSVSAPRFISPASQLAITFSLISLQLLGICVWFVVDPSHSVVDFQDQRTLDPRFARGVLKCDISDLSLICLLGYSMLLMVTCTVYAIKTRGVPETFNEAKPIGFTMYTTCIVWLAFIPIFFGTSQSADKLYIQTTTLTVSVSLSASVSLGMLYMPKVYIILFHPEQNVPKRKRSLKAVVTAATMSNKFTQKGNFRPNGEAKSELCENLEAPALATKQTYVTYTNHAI
- Assay method text: Activities on metabotropic glutamate receptor 4 (EC50; readout marked IP or by a symbol)
- Format: cell-based
- Recorded conditions: ratio of mGlu8 EC50 to mGlu4 EC50, one per pair of values (readout/batch); hydrochloride
Structures can show the parent of a compound that is named as a salt.
Measured quantity: mGlu8/4 EC50 ratio

Below, 2 compounds whose answers are already recorded.
COc1ccc(C(O)P(=O)(O)CC[C@H](N)C(=O)O)cc1[N+](=O)[O-] (single isomer, unassigned) [LSP2-6146-I, hydrochloride]; 1.2
CCOc1cc(C(O)P(=O)(O)CC[C@H](N)C(=O)O)cc([N+](=O)[O-])c1O (single isomer, unassigned) [LSP3-1143-I, hydrochloride]; 6.5

P: COc1cc(C(O)P(=O)(O)CC[C@H](N)C(=O)O)cc([N+](=O)[O-])c1O (single isomer, unassigned) [LSP3-1101-I, hydrochloride]
Q: N[C@@H](CCP(=O)(O)C(O)c1ccc(O)c([N+](=O)[O-])c1)C(=O)O (single isomer, unassigned) [LSP3-2074-I, hydrochloride]
In: Which numeric mGlu8/4 EC50 ratio is bigger, that of P or that of Q ? Answer by stating the label of the chosen item.
Out: Q
(Q: 63, P: 31)

###

- Assayed system: mGlu4 (Homo sapiens, UniProt Q14833)
- Assay method text: Activities on metabotropic glutamate receptor 4 (EC50; readout marked IP or by a symbol)
- Format: cell-based
- Recorded conditions: values marked with an image symbol (second readout, not IP); mean ± spread (n)
Counter-ions that a name gives are not always drawn.
Measured quantity: EC50 (µM)

Below, 4 compounds whose answers are already recorded.
COc1ccc(C(O)P(=O)(O)CC[C@H](N)C(=O)O)cc1[N+](=O)[O-] (single isomer, unassigned) [LSP2-6146-I, hydrochloride]; 2
CCOc1cc(C(O)P(=O)(O)CC[C@H](N)C(=O)O)cc([N+](=O)[O-])c1O (single isomer, unassigned) [LSP3-1143-I, hydrochloride]; 5.1
COc1cc(CP(=O)(O)CC[C@H](N)C(=O)O)cc([N+](=O)[O-])c1O.N; 19.7
COc1ccc(C(O)P(=O)(O)CC[C@H](N)C(=O)O)cc1[N+](=O)[O-] (stereo partly drawn) [LSP1-2101]; 4.2

P: N[C@@H](CCP(=O)(O)C(O)c1cccc(OCC(=O)O)c1)C(=O)O (single isomer, unassigned) [LSP3-3108-II]
Q: N[C@@H](CCP(=O)(O)C(O)c1ccc(O)c([N+](=O)[O-])c1)C(=O)O (single isomer, unassigned) [LSP3-2074-I, hydrochloride]
In: Quick one: lower EC50, P or Q ? Answer by stating the label of the chosen item.
Out: Q
(Q: 0.5 µM, P: 13 µM)
